Every entry's value here was drawn from PubChem BioAssay (NCI).

Assay: NCI Yeast Anticancer Drug Screen. Data for the cln2 rad14 strain (AID 165);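 also: 0% = growth equal to vehicle treated cultures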
Conditions: S. cerevisiae cln2 rad14 strain, at 5.0 µM (retest, dose inferred, filed as 0.5), hits give high values
Description: Growth inhibition of yeast strains with defined genetic alterations is measured as a screen for potential anti-cancer activity. Selected strains with alterations in DNA damage repair or cell cycle control were exposed to compounds and growth inhibition was measured relative to vehicle treated controls. The strain used in this assay is cln2 rad14
This is part of a sample that, as a whole, favours compounds with a hit. Of some 79,000 tested, about 15% had one in any assay. Calls of active or inactive are those of the source. Rule as the data show it: active = growth inhibition above about 70%; inactive = the rest.
Recorded growth inhibition, one value per entry.

Before answering, review these 10 worked examples.
compound	measured
CS/C(C#N)=C(\C#N)SC	3% (inactive)
O=C1c2cc([N+](=O)[O-])ccc2-c2cc([N+](=O)[O-])ccc21	46% (inactive)
Cc1ccc(C2CC(c3cccc([N+](=O)[O-])c3)=Nc3ccccc3S2)cc1 (centres undefined)	-6% (inactive)
CN(C)C(=S)SSSSC(=S)N(C)C	65% (inactive)
CCCCCOCC(=O)OC	2% (inactive)
CCOC(=O)C(=C=C=C(c1ccccc1)c1ccccc1)C(=O)OCC	0% (inactive)
O=C([O-])c1ccccc1[I+]c1ccc(C2CCCCC2)cc1	3% (inactive)
CNc1ccc2c(c1)Cc1ccccc1-2	2% (inactive)
CCCCCCCCCCCCCCCc1nc(SCC(=O)O)n[nH]1	3% (inactive)
O=C(O)c1ccc(C(O)(c2ccccc2)c2ccccc2)cc1	-1% (inactive)

What the record says about `COc1cc2c(cc1OC)-c1nc(N)sc1CC2` : growth inhibition is -4% (inactive)

What the record says about CC(C)C(Cl)CC/C(CBr)=C(\Cl)CCl (centres undefined) : growth inhibition is 24% (inactive)

What the record says about `COc1cc(CCN=Cc2cc(Cl)cc(Cl)c2O)c([N+](=O)[O-])cc1OC` : growth inhibition is 35% (inactive)

What the record says about OC1(c2ccccc2)c2ccccc2C(O)(c2ccccc2)c2cc3c(cc21)CCCC3 (centres undefined) : growth inhibition is -3% (inactive)

What the record says about CC([NH-])C(=O)O.[Cu+2].[NH-]C(Cc1cnc[nH]1)C(=O)O (centres undefined) : growth inhibition is 4% (inactive)

What the record says about CC(=O)OC1OC2C(NC(=O)OC(C)(C)C)C1CC2(OCc1ccccc1)OCc1ccccc1 (centres undefined) : growth inhibition is 8% (inactive)

What the record says about `COc1ccc2nc3cc(Cl)ccc3c(NCCCN(Cc3cc(OC)c(OC)c(OC)c3)Cc3cc(OC)c(OC)c(OC)c3)c2c1` : growth inhibition is 32% (inactive)

What the record says about CC(=O)c1nc2ccccc2n1C(C)C(=O)c1ccccc1 (centres undefined) : growth inhibition is 33% (inactive)

What the record says about `Nc1ccc(Cl)c2cccnc12` : growth inhibition is 0% (inactive)

What the record says about CN(C)C1CCC2C(=C1OC(=O)c1ccccc1)C=Cc1ccccc12 (centres undefined) : growth inhibition is 4% (inactive)
